Cited source: the nanobody polyreactivity screen of Harvey et al. (2022)

- measurement_description: yeast display, Sf9 membrane polyspecificity reagent, FACS + sequencing; frameworks hold sequencing errors
observed_property: polyreactivity (PSR sort gate)

Worked examples follow.
Per the records, this sequence ( QGQLVESGGGLVQAGGSLRLSCAASGLIFYKYAMGWYRQAPGKERVLVAAISSSGGSTYYGDSVKGRFTISRDTAKNTVYFQMNSLKPEDTADSSCAARTNRRGYHDWGQGTQVTVSS ) has polyreactivity (PSR sort gate) equal to high polyreactivity

Per the records, this sequence ( QVQLVESGGGLVQAGGSLRLICAASGRTFINYAMGWSRQAPGKERELVAAITTGGRTNYADSVKGRFTISRDNAKNTVYLQMKSLKPEDTAVYYCAADRYYWGRYTLNYWGQGTQVTVSS ) has polyreactivity (PSR sort gate) equal to low polyreactivity

Per the records, this sequence ( QVQLVESGGGLVQAGGSLRLSCAASGRIFSVYDMGWYRQAPGKERELVAAIDTSDGSTNYADSVKGRFTISRDNAKNTVYLQMNSLKPEDTAVYYCNATDSYVPFDYWGQGTQVTVSS ) has polyreactivity (PSR sort gate) equal to low polyreactivity

Per the records, this sequence ( QFQLVESGGGLVQAGGSLRLSCAASGRIFVRYAMGLYRKAPGKERELVAAISKSGGSTYYADSVKGRFTISRDNAKNTVYLQMNSLKPEDTAVYYCNALVRRRPGYIRYDYWGQGTQVTVSS ) has polyreactivity (PSR sort gate) equal to low polyreactivity

Per the records, this sequence ( QVQLVESGGGLVQAGGSLRLSCADSGRTSRVYAMGWYRQEPAKERELVAAITWRGGNTYYADSVKGRFTISRDNAKNTVYLQMNSLKPEDTAVYYCAADPLSYGSWHGDSWGQGTQVTLSS ) has polyreactivity (PSR sort gate) equal to high polyreactivity

***
Per the records, this sequence ( QVQLVESGGGLVQAGGSLRLSCAASGSIFYFYDMGWYRQAPGKERELVAAISLDDGGTYYADSVKGRFTISRDNAKNTVYLQMNSLKPEDTAVYYCAADYYYWYQIYDYWGQGTQVTVSS ) has polyreactivity (PSR sort gate) equal to high polyreactivity

Per the records, this sequence ( QVQLQGSGGGLVQAAGSLRLSCAASGYIFQNVPMGWNRQAPGKERELVAGIDNGTSTNYADSVNGRFTISRDNAKKTVYLQMNSLKPEDTAVYYCAAAGQADDTLGYWGQGTQVTVSR ) has polyreactivity (PSR sort gate) equal to low polyreactivity

Per the records, this sequence ( QVQLVESGGGLVQEGGSLRLSCAASGFTFPYYAMGWYRQAPGKERELVAAISNGGSNTYYADSVKGRFTISRDNAKNTVYVQMNSLKPEDTAVYYCAARVGGSYDYWGQGTQVTVSS ) has polyreactivity (PSR sort gate) equal to high polyreactivity

Per the records, this sequence ( QVQLVESGGGLVQAGGSLRLSCAASGFTFSLYAMGWYRQAPGKERELVASISRSGGSTYYADSVKGRFTISRDNAKNTVYLQMNSLKPEDTAVYYCAARWRPYKYDSWGQGTQVTVSS ) has polyreactivity (PSR sort gate) equal to high polyreactivity

====

- measurement_description: yeast display, Sf9 membrane polyspecificity reagent, FACS + sequencing; frameworks hold sequencing errors
observed_property: polyreactivity (PSR sort gate)

Worked examples follow.
Per the records, this sequence ( QVQLVESGGGLVQAGGSLRLSCAASGSIFGGNAMGWYRQAPGKERELVAAITTGDGSTYYADSVKGRFTISRDNAKNTVYLQMNSLKPEDTAVYYCAADIVHDRFDYWGQGTQVTVSS ) has polyreactivity (PSR sort gate) equal to low polyreactivity

Per the records, this sequence ( QVQLVESGGGLVQAGGSLRLSCAASGYTFINYAMGWYRQAPGKERELVAAITSTGSRTYYADSVKGRFTITRDNAKNTVYLQMNSLKPEDPAVYYCAAQVDRKYRWFNSWGQGTQVNVSS ) has polyreactivity (PSR sort gate) equal to high polyreactivity

Per the records, this sequence ( QVQLVESGGGLVQAGGSLRLSCAASGFTFAPYVMGWYRQAPGKETELVAAIPTRGGSTYYADSVKGRFTISRDNAKNTVYLQMNSLKPEDTAVYYFAAQRRYDTADHGYWGQGTQVTVSS ) has polyreactivity (PSR sort gate) equal to high polyreactivity

Per the records, this sequence ( QVQLVESGGGLVQAGGSLRLSCAASGGIFYYYAMGWYRQAPGKERELVATISNGGSTYYADSVKGRFTISRDNAKNTVYLQMNSLKPEDTAVYYCAADSSSDQYRYFPFDHWGQGTQVTVSS ) has polyreactivity (PSR sort gate) equal to high polyreactivity

***
Per the records, this sequence ( QVQRVESGGGLVQAGCRLRLSCAASGTFFMGWYRQAPWKSRELVAGISISDGSTYYADSVKGRLTISRDNAKNTVYLQMKSLKPEDTAVYYFAAVFNPTTGFDYWGQGTQVTVSS ) has polyreactivity (PSR sort gate) equal to low polyreactivity

Per the records, this sequence ( QVHLVESGGGLVQAGGSLRLSCAASGNIFGLYAMGWYRQAPWKERELVAAISWRGGNTYYADYVKGRFTISRDNAKNTVYLQMNSLKPEDTAVYYCAAEAGYWYDYWGQGTQVTVSS ) has polyreactivity (PSR sort gate) equal to high polyreactivity

Per the records, this sequence ( QVHLVVSWGGLVQAGGSLRLSCSASGITFKRYAMGWYRQSRGNERELVAAINWNGCGTYYADSVKGRFTISRDNAKNTVYLQMNSLKPEDTAVYYCAAGLAYWYWRGYDYWGQGTQVTVSS ) has polyreactivity (PSR sort gate) equal to high polyreactivity

====

- measurement_description: yeast display, Sf9 membrane polyspecificity reagent, FACS + sequencing; frameworks hold sequencing errors
observed_property: polyreactivity (PSR sort gate)

Per the records, this sequence ( QVQREESGGGLFQAGGTLRLSCAASGFTFVWYAMGWNRQATGKERELVAAITRSGGSTYYADSVKGRFTISRDNAKNTVYLQMNSLKPEDTAVYYCNVSYGTFPGRALFANNFYYWGQGTQVTVSS ) has polyreactivity (PSR sort gate) equal to low polyreactivity

Per the records, this sequence ( QVQLVESGGGLVQAGGRLRLSCAASGSIFPYYVMGWYRQAPGKERELVAAISTSDGSTYADSVKGRFTISRDNAKNTVYLQMNSLKPEDTAVYYCAVANVYYVGYDYWGQGTRVTVSS ) has polyreactivity (PSR sort gate) equal to low polyreactivity

Per the records, this sequence ( QVQLVESGGGLVQAGGSLRLSCAASGLIFSVYGMGWYRQAPGKERELVAAISSRGGSTYYADSVKGRFTISRDLAKNTVYLQMNSLKQEDTAVYYCAARSNYRMDYWGQGTQVTVSS ) has polyreactivity (PSR sort gate) equal to high polyreactivity

Per the records, this sequence ( QVQLVESGGGLVQAGGSLRLSCAASGRTYYGNAMGWYRQAPGKERELVAAITSGGGSTRYADSVKGRFTISRDNAKNTVYLQMNSLKPEDTAVYYCNATLGNFGYRRYSGHTRYYYWGQGTQVTVSS ) has polyreactivity (PSR sort gate) equal to high polyreactivity

# input for lookup
Per the records, this sequence ( QEQLVESGGGLVQAGGSLRLSCAASGFIFAPYAMGWYSQAPGKDRDLVAAISSSGGSTYYADSVKGRFTISRDNAKNTVYLQMNSLKPEDTAVFYCAARGNFGANPGRKHGFDYWGQGTQVTVSS ) has polyreactivity (PSR sort gate) equal to low polyreactivity

====

- measurement_description: yeast display, Sf9 membrane polyspecificity reagent, FACS + sequencing; frameworks hold sequencing errors
observed_property: polyreactivity (PSR sort gate)

Per the records, this sequence ( QVQLVESGGGLVQAGGSLRLSCAASGFIFDQYDMGWYRQAPGKERELVAAISDSGGSTYYADSVKGRFTISRDNAKNTVYLQMNSLKPEDTAVYYCAAGSYLAFGGLWFYYWGQGTQVTVSS ) has polyreactivity (PSR sort gate) equal to high polyreactivity

Per the records, this sequence ( QVQLVESGGGLVQAGGSLRLSCAASGITFVPNAMGWYRQAPGKERELVARIDNGVSTNYADSVKGRFTISRDNAKNTVYLQMNSLKPEDTAVYYCAVGYWDSRYRYDWPNSDYWGQGTQVTVSS ) has polyreactivity (PSR sort gate) equal to low polyreactivity

Per the records, this sequence ( QVQLVESGGVLVQAGGSLRLSCASSGSTFTKYAMGWYRQAPGKERELVAAISRSGGGTYYADSVKGRFTISRDNAKNTVYLQMNSLKPEDTAVYYCNAALFRGAQFDYWGQGTQVTVSS ) has polyreactivity (PSR sort gate) equal to high polyreactivity

Per the records, this sequence ( QVQLVESGGGLVQAGGSLRLSCAASGSTLIANAMGWYRQAPGKERELVAGITYRGGDITTYADSVKGRFTISRDTAKNTVYLQMNSLKPEDTAVYYCAARVVWPTWARGGYWGQGTQVTVSS ) has polyreactivity (PSR sort gate) equal to low polyreactivity

Per the records, this sequence ( QVQLVESGGGLVQAGGSLRLSCAASGFTFGYYAMGWYRQAPGKERELVAAITYSGGSTYYADSVKGRFTISRDNAKNTVYLQMNSLKPEDTAVYYCNAYARRYYYGRWYGEFDYWGQGTQVTVSS ) has polyreactivity (PSR sort gate) equal to low polyreactivity

Per the records, this sequence ( QVQLVESGGGLVQAGGSLRLSCAASGSTFDFYAMGWYRQAPGKERELVAAISKSGGSTYYADSVKGRFTISRDTAKNTVYLQMNSLKPEDTAVYYCAAYVSYRMYWGQGTQVTVST ) has polyreactivity (PSR sort gate) equal to high polyreactivity

***
Per the records, this sequence ( QVQLVESGGGLVQAGGSLRLSCASSGSTFDYYVMGWYRQEPGIVRELVASISSGGSTYYADSVKGRFTISRDNAKNTVYLQMNSLKPEDTAVYYCAARYYGRVGGYSIGYNYWGQGTQVTVSS ) has polyreactivity (PSR sort gate) equal to high polyreactivity

Per the records, this sequence ( QVQLVESVVGLVQAGGSLRLSCASSGSTFGANAMGRYRQAPGKEREFLAAISRSGVRTYYADSVKGRFTISRDNAKKTVYLQMNSLKPEDTAVYYCAADGYWWTYTRYDYWGQGTQVTVSS ) has polyreactivity (PSR sort gate) equal to low polyreactivity

Per the records, this sequence ( HVPLVESGGGLVQAGGSLRLSCAASGFTFRANGMGWYRQAPGKERELVATIPSGGTTNYADSVKGRFTISRDNAKKTVYLQMNSLKPEDNAVYDCAASLGANGFQGRMYYWGQGTQVTVSS ) has polyreactivity (PSR sort gate) equal to low polyreactivity

Per the records, this sequence ( QVQLVESGGGLVQAGGSLRLSCAASGFTFYGYAMGWYRQAPGKERELVAGITSGGRTYYADSVKGRFTISRDNAKNTVYLQMNSLKPEDTAVYYCAARRITWGRFDYWGQGTQVTVSS ) has polyreactivity (PSR sort gate) equal to high polyreactivity

Per the records, this sequence ( QVQLVESGGVLVQAGCSLRLSCAAYGFTFASYAMGWYRQAPGKERELVAAISWGTVSTYYADSVKGRFTISRDNAMITVYLQMNSLRREDTAVYFCDAQRYTRLRRHGYWGLGTQVTVSS ) has polyreactivity (PSR sort gate) equal to high polyreactivity
